Experiment Summary: Pharmacokinetic study of four steroidal saponins in rat plasma after oral administration of A. asphodeloides fractions (UPLC-MS/MS)
Type: in vivo, Sprague-Dawley rats
Condition Summary: male, Sprague-Dawley, rat, in vivo, po, 400 mg/kg, AUC0–t
Experimental: The dried A. asphodeloides were chopped into slices before using. The A. asphodeloides was immersed in water (1:10, w/v) and extracted twice by refluxing for 2 h. […] The contents of four steroidal saponins in ASE dry powder were measured quantitatively by the external standard method using the same chromatography conditions as described above. […]
Readout Kind: AUC(0-t) (ng·h/mL)
Provide only the numeric value, understood in ng·h/mL.

{"columns": ["Compound", "Readout Kind", "Result Value"],
 "data": [
  ["CC(CCC1(O)OC2C(O)C3C4CCC5CC(OC6OC(CO)C(O)C(O)C6OC6OC(CO)C(O)C(O)C6O)CCC5(C)C4CCC3(C)C2C1C)COC1OC(CO)C(O)C(O)C1O (centres unmarked) [Timosaponin E1, timosaponin E1]", "AUC(0-t)", 115]
]}

Query string: Which value of AUC(0-t) has been reported for CC1=C(CCC(C)COC2OC(CO)C(O)C(O)C2O)OC2CC3C4CCC5CC(OC6OC(CO)C(O)C(O)C6OC6OC(CO)C(O)C(O)C6O)CCC5(C)C4CCC3(C)C12 (centres unmarked) in the records?
Result string: 257

* * *

Experiment Summary: Pharmacokinetic study of four steroidal saponins in rat plasma after oral administration of A. asphodeloides fractions (UPLC-MS/MS)
Format: in vivo, Sprague-Dawley rats
Condition Summary: male, Sprague-Dawley, rat, plasma, po, 400 mg/kg, rat plasma, single oral dose, Group ASE-MF, n = 6, mean ± S.D.; read-out: T1/2 (converted)
Below, each entry is listed alongside its reported half-life.
Provide only the numeric value, understood in h.

{"columns": ["Smiles Text", "half-life, h"],
 "data": [
  ["C[C@@H](CC[C@@]1(O)O[C@H]2C[C@H]3[C@@H]4CC[C@@H]5C[C@@H](O[C@@H]6O[C@H](CO)[C@H](O)[C@H](O)[C@H]6O[C@@H]6O[C@H](CO)[C@@H](O)[C@H](O)[C@H]6O)CC[C@]5(C)[C@H]4CC[C@]3(C)[C@H]2[C@@H]1C)CO[C@@H]1O[C@H](CO)[C@@H](O)[C@H](O)[C@H]1O", 3.34]
]}

Please examine the following record next.
Query string: Which value of half-life has been reported for C[C@H]1CC[C@@]2(OC1)O[C@H]1C[C@H]3[C@@H]4CC[C@@H]5C[C@@H](O[C@@H]6O[C@H](CO)[C@H](O)[C@H](O)[C@H]6O[C@@H]6O[C@H](CO)[C@@H](O)[C@H](O)[C@H]6O)CC[C@]5(C)[C@H]4CC[C@]3(C)[C@H]1[C@@H]2C in the records?
Result string: 6.95

* * *

Experiment Summary: Pharmacokinetic study of four steroidal saponins in rat plasma after oral administration of A. asphodeloides fractions (UPLC-MS/MS)
Format: in vivo, Sprague-Dawley rats
Condition Summary: male, Sprague-Dawley, rat, plasma, po, 400 mg/kg, rat plasma, single oral dose, Group ASE (ASE 400 mg/kg), n = 6, mean ± S.D.; read-out: Cmax
Readout Kind: Cmax (ng/mL)
Provide only the numeric value, understood in ng/mL.

{"columns": ["Smiles Text", "Readout Kind", "Result Value"],
 "data": [
  ["C[C@@H](CC[C@@]1(O)O[C@H]2C[C@H]3[C@@H]4CC[C@@H]5C[C@@H](O[C@@H]6O[C@H](CO)[C@H](O)[C@H](O)[C@H]6O[C@@H]6O[C@H](CO)[C@@H](O)[C@H](O)[C@H]6O)CC[C@]5(C)[C@H]4CC[C@]3(C)[C@H]2[C@@H]1C)CO[C@@H]1O[C@H](CO)[C@@H](O)[C@H](O)[C@H]1O", "Cmax", 271]
]}

Please examine the following record next.
Query string: Which value of Cmax has been reported for C[C@H]1CC[C@@]2(OC1)O[C@H]1C[C@H]3[C@@H]4CC[C@@H]5C[C@@H](O[C@@H]6O[C@H](CO)[C@H](O)[C@H](O)[C@H]6O[C@@H]6O[C@H](CO)[C@@H](O)[C@H](O)[C@H]6O)CC[C@]5(C)[C@H]4CC[C@]3(C)[C@H]1[C@@H]2C in the records?
Result string: 65.2

* * *

Experiment Summary: Pharmacokinetic study of four steroidal saponins in rat plasma after oral administration of A. asphodeloides fractions (UPLC-MS/MS)
Assay type: in vivo, Sprague-Dawley rats
Condition Summary: male, Sprague-Dawley, rat, plasma, po, 400 mg/kg, rat plasma, single oral dose, Group ASE-SF-MF (ASE 400 mg/kg plus small molecule and macromolecular fraction), n = 6, mean ± S.D.; read-out: Cmax
Method: The dried A. asphodeloides were chopped into slices before using. The A. asphodeloides was immersed in water (1:10, w/v) and extracted twice by refluxing for 2 h. […] The contents of four steroidal saponins in ASE dry powder were measured quantitatively by the external standard method using the same chromatography conditions as described above. […]
Readout Kind: Cmax (ng/mL)
Provide only the numeric value, understood in ng/mL.

Query string: Which value of Cmax has been reported for C[C@H]1CC[C@@]2(OC1)O[C@H]1C[C@H]3[C@@H]4CC[C@@H]5C[C@@H](O[C@@H]6O[C@H](CO)[C@H](O)[C@H](O)[C@H]6O[C@@H]6O[C@H](CO)[C@@H](O)[C@H](O)[C@H]6O)CC[C@]5(C)[C@H]4CC[C@]3(C)[C@H]1[C@@H]2C in the records?
Result string: 74

* * *

Below, each entry is listed alongside its reported AUC(0-t).
Experiment Summary: Pharmacokinetic study of four steroidal saponins in rat plasma after oral administration of A. asphodeloides fractions (UPLC-MS/MS)
Type: in vivo, Sprague-Dawley rats
Condition Summary: male, Sprague-Dawley, rat, plasma, po, 400 mg/kg, rat plasma, single oral dose, Group ASE-MF, n = 6, mean ± S.D.; read-out: AUC0–t
Provide only the numeric value, understood in ng·h/mL.

{"columns": ["Smiles Text", "Units Of Measure", "Result Value"],
 "data": [
  ["C[C@H]1CC[C@@]2(OC1)O[C@H]1C[C@H]3[C@@H]4CC[C@@H]5C[C@@H](O[C@@H]6O[C@H](CO)[C@H](O)[C@H](O)[C@H]6O[C@@H]6O[C@H](CO)[C@@H](O)[C@H](O)[C@H]6O)CC[C@]5(C)[C@H]4CC[C@]3(C)[C@H]1[C@@H]2C", "ng·h/mL", 688]
]}

Please examine the following record next.
Query string: Which value of AUC(0-t) has been reported for C[C@@H](CC[C@@]1(O)O[C@H]2C[C@H]3[C@@H]4CC[C@@H]5C[C@@H](O[C@@H]6O[C@H](CO)[C@H](O)[C@H](O)[C@H]6O[C@@H]6O[C@H](CO)[C@@H](O)[C@H](O)[C@H]6O)CC[C@]5(C)[C@H]4CC[C@]3(C)[C@H]2[C@@H]1C)CO[C@@H]1O[C@H](CO)[C@@H](O)[C@H](O)[C@H]1O in the records?
Result string: 1980

* * *

Experiment Summary: Pharmacokinetic study of four steroidal saponins in rat plasma after oral administration of A. asphodeloides fractions (UPLC-MS/MS)
Type: in vivo, Sprague-Dawley rats
Condition Summary: male, Sprague-Dawley, rat, in vivo, po, 400 mg/kg, Tmax
Readout Kind: Tmax (h)
Provide only the numeric value, understood in h.

{"columns": ["Molecule", "Units Of Measure", "Tmax"],
 "data": [
  ["CC(CCC1(O)OC2C(O)C3C4CCC5CC(OC6OC(CO)C(O)C(O)C6OC6OC(CO)C(O)C(O)C6O)CCC5(C)C4CCC3(C)C2C1C)COC1OC(CO)C(O)C(O)C1O (centres unmarked) [Timosaponin E1, timosaponin E1]", "h", 4]
]}

Please examine the following record next.
Query string: Which value of Tmax has been reported for CC1=C(CCC(C)COC2OC(CO)C(O)C(O)C2O)OC2CC3C4CCC5CC(OC6OC(CO)C(O)C(O)C6OC6OC(CO)C(O)C(O)C6O)CCC5(C)C4CCC3(C)C12 (centres unmarked) in the records?
Result string: 3.75

* * *

Experiment Summary: Pharmacokinetic study of four steroidal saponins in rat plasma after oral administration of A. asphodeloides fractions (UPLC-MS/MS)
Type: in vivo, Sprague-Dawley rats
Condition Summary: male, Sprague-Dawley, 400 mg/kg; rat plasma, single oral dose, Group ASE-SF-MF, n = 6, mean ± S.D.; read-out: T1/2 (converted)
Readout Kind: half-life (min)
Provide only the numeric value, understood in min.

Query string: Which value of half-life has been reported for C[C@@H](CC[C@@]1(O)O[C@H]2C[C@H]3[C@@H]4CC[C@@H]5C[C@@H](O[C@@H]6O[C@H](CO)[C@H](O)[C@H](O)[C@H]6O[C@@H]6O[C@H](CO)[C@@H](O)[C@H](O)[C@H]6O)CC[C@]5(C)[C@H]4CC[C@]3(C)[C@H]2[C@@H]1C)CO[C@@H]1O[C@H](CO)[C@@H](O)[C@H](O)[C@H]1O in the records?
Result string: 311

// provenance: paper PMC6331991
